Item-by-item account of IC50
Biological target: T1, recombinant c-Met extracellular domain (R&D Systems cat#358-MT-100/CF) (UniProt P08581 25-932)
T1 chain: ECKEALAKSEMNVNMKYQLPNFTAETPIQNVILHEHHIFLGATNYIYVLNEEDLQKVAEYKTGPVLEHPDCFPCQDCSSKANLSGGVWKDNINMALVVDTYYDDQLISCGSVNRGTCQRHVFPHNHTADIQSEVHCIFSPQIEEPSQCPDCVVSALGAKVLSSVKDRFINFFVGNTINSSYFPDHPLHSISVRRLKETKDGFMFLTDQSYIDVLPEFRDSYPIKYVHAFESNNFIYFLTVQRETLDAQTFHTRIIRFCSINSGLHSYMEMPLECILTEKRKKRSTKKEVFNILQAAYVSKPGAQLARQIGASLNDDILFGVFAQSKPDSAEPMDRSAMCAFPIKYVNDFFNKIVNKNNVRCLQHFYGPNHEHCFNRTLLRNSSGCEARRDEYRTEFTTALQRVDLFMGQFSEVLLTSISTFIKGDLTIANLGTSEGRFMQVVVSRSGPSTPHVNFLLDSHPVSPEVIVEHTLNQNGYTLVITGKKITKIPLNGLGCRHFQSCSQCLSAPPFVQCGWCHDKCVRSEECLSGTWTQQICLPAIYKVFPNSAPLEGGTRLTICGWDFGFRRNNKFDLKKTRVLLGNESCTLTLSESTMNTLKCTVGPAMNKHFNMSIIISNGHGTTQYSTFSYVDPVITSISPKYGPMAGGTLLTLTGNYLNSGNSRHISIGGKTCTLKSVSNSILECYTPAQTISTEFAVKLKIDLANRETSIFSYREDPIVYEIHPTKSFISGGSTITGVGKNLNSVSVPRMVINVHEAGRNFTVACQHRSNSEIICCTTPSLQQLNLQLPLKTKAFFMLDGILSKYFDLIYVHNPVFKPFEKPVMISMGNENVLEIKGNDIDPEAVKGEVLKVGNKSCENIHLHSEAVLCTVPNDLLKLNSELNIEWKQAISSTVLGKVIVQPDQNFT
Assay: ELISA, blocking of HGF binding to c-Met
Readout kind: IC50 (nM)

binder="El-B19 (E1 derived anti-c-Met antibody) (antibody, V domains shown) VH: QVQLVQSGAEVKKPGASVKVSCKASGFTFSGDYIHWVRQAPGQGLEWMGWINPNSGGTNYAQKFQGRVTMTRDTSISTAYMELSRLRSDDTAVYYCAREPGRDYYYYDGLDVWGQGTTVTVSS VL: QSVVTQPPSVSGAPGQRVTISCLGSASNIGAGHDVHWYQQLPGTAPKLLIYGNSNRPSGVPDRFSGSKSGTSASLAITGLQAEDEADYYCQSYSSSLSAVLFGTGTKVTVL" result_value=2.63
binder="El-BR1 (E1 derived anti-c-Met antibody) (antibody, V domains shown) VH: QVQLVQSGAEVKKPGASVKVSCKASGSTFSGDYLHWVRQAPGQGLEWMGWINPNSGGTNYAQKFQGRVTMTRDTSISTAYMELSRLRSDDTAVYYCAREPARDYYYYDGLDVWGQGTTVTVSS VL: QSVVTQPPSVSGAPGQRVTISCLGSASNIGAGYDVHWYQQLPGTAPKLLIYGNSNRPSGVPDRFSGSKSGTSASLAITGLQAEDEADYYCQSYSSSLSAVLFGTGTKVTVL" result_value=3.11
binder="El-A14 (E1 derived anti-c-Met antibody) (antibody, V domains shown) VH: QVQLVQSGAEVKKPGASVKVSCKASGYTFSGDYIHWVRQAPGQGLEWMGWINPNSGGTNYAQKFQGRVTMTRDTSISTAYMELSRLRSDDTAVYYCAREPARDYYYYDGLDVWGQGTTVTVSS VL: QSVVTQPPSVSGAPGQRVTISCIGSSSNIGAGHDVHWYQQLPGTAPKLLIYGNSNRPSGVPDRFSGSKSGTSASLAITGLQAEDEADYYCQSYSSSLSAYVFGTGTKVTVL" result_value=2.31
binder="El-B11 (E1 derived anti-c-Met antibody) (antibody, V domains shown) VH: QVQLVQSGAEVKKPGASVKVSCKASGYTFSGDYIHWVRQAPGQGLEWMGWINPNSGGTNYAQKFQGRVTMTRDTSISTAYMELSRLRSDDTAVYYCAREPARDYYYYDGLDVWGQGTTVTVSS VL: QSVVTQPPSVSGAPGQRVTISCIGSSSNIGAGYDVHWYQQLPGTAPKLLIYGNSNRISGVPDRFSGSKSGTSASLAITGLQAEDEADYYCQSYSSSLSAVLFGTGTKVTVL" result_value=2.98
